The reported measurements were obtained from PubChem BioAssay.

# test_protocol: reduced mouse 2C T cell binding to pMHC/ICAM-1 vesicles – MLPCN validation set, flow cytometry, LFA-1/ICAM-1 modulator project, pilot screen (AID 2523)
# experimental_context: 2C mouse CD8+ T cells, at 7 µM, stronger effect = lower value; measured here: CD8+/vesicle+ event percentage
Parameter double positive events: see the listing below.
// note: answer is a bare numeric in %

[[record]]
molecule = "c1ccc(Cn2nnc3cnccc32)cc1"
numeric_value = 57.9


Input: If you can, please state the reported double positive events value of COc1cc(CO)ccc1OCc1nnnn1-c1ccc(C)cc1 .
Output: 58.4

Input: If you can, please state the reported double positive events value of C=CCOC(=O)C1=C(C)NC(=O)NC1/C=C/c1ccccc1OC (configuration not stated) .
Output: 57.9

Input: If you can, please state the reported double positive events value of Cc1ccc(C(=O)COC(=O)c2cccc(N3C(=O)c4c(C)nc5ccccc5c4C3=O)c2)cc1C .
Output: 61.9

Input: If you can, please state the reported double positive events value of O=c1c(-c2ccccc2)c(O)c2cccc3c2n1CCC3 .
Output: 61.2

Input: If you can, please state the reported double positive events value of O=c1nc2sc3ccccc3n2c(=O)n1-c1ccc(Cl)cc1 .
Output: 64.1

Input: If you can, please state the reported double positive events value of Nc1ccc2nc(Cc3ccccc3)[nH]c2c1 .
Output: 60.5

Input: If you can, please state the reported double positive events value of CN(C)CCN(Cc1ccc(Cl)cc1)c1ccccn1 .
Output: 61.2

Input: If you can, please state the reported double positive events value of CN1/C(=C\C=Nc2ccccc2)C(C)(C)c2ccccc21 .
Output: 61.9

Input: If you can, please state the reported double positive events value of C[C@@H]1C[C@H]2[C@@H]3C[C@H](F)C4=CC(=O)C=C[C@]4(C)[C@@]3(F)[C@@H](O)C[C@]2(C)[C@@]1(O)C(=O)COC(=O)C(C)(C)C .
Output: 58.5

Input: If you can, please state the reported double positive events value of COc1ccc(CCn2c(C)nc3c(c(=O)c4ccccc4n3C)c2=O)cc1 .
Output: 61.1

Input: If you can, please state the reported double positive events value of CC(C(=O)O)c1ccc(-c2ccccc2)c(F)c1 (configuration not stated) .
Output: 66.4

----------
# test_protocol: calorie-restriction mimetic ROS inhibitors, yeast – validation compound set, pilot screen (AID 2706);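 note: yeast exposed to compound for one week at 30 degrees C before staining; 100% = mean of all compound wells on the same plate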
# experimental_context: S. cerevisiae aging, superoxide DHE fluorescence; at 10 µM; stronger effect = lower value
Parameter superoxide response (% of plate): see the listing below.
// note: answer is a bare numeric in %

[[record]]
molecule = "O=C(N1CCCC1)C12CC3CC(C1)CC(C(=O)N1CCCC1)(C3)C2"
readout_kind = "superoxide response (% of plate)"
numeric_value = 104

[[record]]
molecule = "CC1(C)CC(=O)C2=C(C1)c1c(ccc3ccccc13)NC2c1ccco1 (stereo unspecified)"
readout_kind = "superoxide response (% of plate)"
numeric_value = 107

[[record]]
molecule = "Cc1cccc(NC(=O)c2cc3ccccc3o2)c1"
readout_kind = "superoxide response (% of plate)"
numeric_value = 90.5

[[record]]
molecule = "Cc1cccc(C(=O)c2cccc(C)c2)c1"
readout_kind = "superoxide response (% of plate)"
numeric_value = 104

[[record]]
molecule = "COc1cc2[nH]c3c(=O)n(CCN4CCOCC4)cnc3c2cc1OC"
readout_kind = "superoxide response (% of plate)"
numeric_value = 98.5

[[record]]
molecule = "O=C(Nc1ccc(Cl)cn1)Nc1ccccc1Cl"
readout_kind = "superoxide response (% of plate)"
numeric_value = 93.6


Input: If you can, please state the reported superoxide response (% of plate) value of COc1cc2oc(-c3ccc(O)cc3)cc(=O)c2c(OC)c1O .
Output: 107

Input: If you can, please state the reported superoxide response (% of plate) value of O=C(O)CCCNc1ccc(S(=O)(=O)Nc2ccccc2C(=O)O)cc1C(=O)O .
Output: 101

Input: If you can, please state the reported superoxide response (% of plate) value of CC1CCCC(C)N1NC(=O)c1ccc(Cl)c(S(N)(=O)=O)c1 (stereo unspecified) .
Output: 98.3

Input: If you can, please state the reported superoxide response (% of plate) value of O=C(O)C1CCN(C(=O)COc2ccc3c4c(c(=O)oc3c2)CCC4)CC1 .
Output: 105

Input: If you can, please state the reported superoxide response (% of plate) value of Cn1c([N+](=O)[O-])cnc1COC(N)=O .
Output: 98.7

----------
Parameter superoxide response (% of plate): see the listing below.
# test_protocol: calorie-restriction mimetic ROS inhibitors, yeast – validation compound set, pilot screen (AID 2706);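 note: yeast exposed to compound for one week at 30 degrees C before staining; 100% = mean of all compound wells on the same plate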
# experimental_context: S. cerevisiae aging, superoxide DHE fluorescence; at 10 µM; stronger effect = lower value
// note: answer is a bare numeric in %

[[record]]
compound = "S=C(NCCOCCOCCNC(=S)Nc1ccccc1)Nc1ccccc1"
numeric_value = 134


Input: If you can, please state the reported superoxide response (% of plate) value of O=C(N1CCCCC1)C1(c2ccccc2)CCOCC1 .
Output: 92.5

Input: If you can, please state the reported superoxide response (% of plate) value of CSCCC(NC(=O)OC(C)(C)C)C(=O)Oc1ccc2c(=O)c(-c3ccc4c(c3)OCCO4)coc2c1 (configuration not stated) .
Output: 99.7

Input: If you can, please state the reported superoxide response (% of plate) value of CC1CCN(C(=O)Oc2ccccc2)CC1 .
Output: 111

Input: If you can, please state the reported superoxide response (% of plate) value of CN(C)CCC(c1ccccc1)c1ccccn1 (configuration not stated) .
Output: 93.1

Input: If you can, please state the reported superoxide response (% of plate) value of O=C1CC[C@@H](CN(Cc2ccccc2)Cc2cn[nH]c2-c2cc3ccccc3o2)N1 .
Output: 93.3

Input: If you can, please state the reported superoxide response (% of plate) value of CCn1cc(C(=O)O)c(=O)c2ccc(C)nc21 .
Output: 99.5

Input: If you can, please state the reported superoxide response (% of plate) value of CCCc1c(OCCCCc2nn[nH]n2)ccc(C(C)=O)c1O .
Output: 115

Input: If you can, please state the reported superoxide response (% of plate) value of N#C/C(=C\c1ccc(O)c(O)c1)C(=O)NCCCc1ccccc1 .
Output: 93.6

Input: If you can, please state the reported superoxide response (% of plate) value of Cc1ccc(S(=O)(=O)Oc2ccccc2/C=N/N=C(N)N)cc1 .
Output: 97.8

Input: If you can, please state the reported superoxide response (% of plate) value of CC(C)[C@H](NC(=O)[C@@H]1CSCN1C(=O)OC(C)(C)C)C(=O)NCC1CCC(C(=O)O)CC1 (some centres not stated) .
Output: 82.1

Input: If you can, please state the reported superoxide response (% of plate) value of COC(=O)CSc1nc2ccc(N)cc2s1 .
Output: 110

----------
# test_protocol: reduced mouse 2C T cell binding to pMHC/ICAM-1 vesicles – MLPCN validation set, flow cytometry, LFA-1/ICAM-1 modulator project, pilot screen (AID 2523)
# experimental_context: 2C mouse CD8+ T cells, at 7 µM, stronger effect = lower value; measured here: CD8+/vesicle+ event percentage
Parameter double positive events: see the listing below.
// note: answer is a bare numeric in %

Look over these answered cases.
[[record]]
molecule = "COc1c(O)ccc2c1CN1CCc3cc4c(cc3C1C2)OCO4 (configuration not stated)"
readout_kind = "double positive events"
numeric_value = 61.6

[[record]]
molecule = "O=C(COc1cc(O)c2c(=O)c3ccccc3oc2c1)OCc1ccccc1"
readout_kind = "double positive events"
numeric_value = 61

[[record]]
molecule = "O=C(O)C1[C@H]2C(=O)N(C3CCCC3)C[C@]23C=C[C@H]1O3 (some centres not stated)"
readout_kind = "double positive events"
numeric_value = 57.9

[[record]]
molecule = "COc1cccc(OCc2nnc(-c3cccs3)o2)c1"
readout_kind = "double positive events"
numeric_value = 60.1

[[record]]
molecule = "Cc1cc(/C=N/O)c(C)n1-c1ccc(Br)cc1"
readout_kind = "double positive events"
numeric_value = 65.6

[[record]]
molecule = "O=C(CN1C(=O)c2ccccc2S1(=O)=O)Nc1ccccc1"
readout_kind = "double positive events"
numeric_value = 67.7


Input: If you can, please state the reported double positive events value of COc1ccc(NC(=O)C2CCCN2C(=O)OC(C)(C)C)cc1 (configuration not stated) .
Output: 69.5

Input: If you can, please state the reported double positive events value of Nc1ccc(S(N)(=O)=O)cc1N .
Output: 66.3

Input: If you can, please state the reported double positive events value of CC1(C)CC(=O)c2cnc(NC(=O)C3CCCC3)nc2C1 .
Output: 61

Input: If you can, please state the reported double positive events value of COCCCN1C(=O)/C(=C\c2cccs2)C(C(=O)OC)=C1C .
Output: 57.8

Input: If you can, please state the reported double positive events value of COC(=O)CCC(=O)CN .
Output: 62.2

Input: If you can, please state the reported double positive events value of Cc1nc2ccccc2n1CC(=O)NC1CCCC1 .
Output: 60.6

Input: If you can, please state the reported double positive events value of CCc1ccc(/C=C2\Oc3cc(OC(=O)N4CCOCC4)ccc3C2=O)cc1 .
Output: 64.9

Input: If you can, please state the reported double positive events value of CCOc1ncnc2c1[nH]c1ccccc12 .
Output: 52.2

Input: If you can, please state the reported double positive events value of C[C@]12CCC(=O)C=C1CC[C@@H]1[C@@H]2[C@@H](O)C[C@@]2(C)[C@H]1CC[C@]2(O)C(=O)CO .
Output: 58.4

Input: If you can, please state the reported double positive events value of CCOC(=O)C1C2C=CC3(CN(c4ccc(Cl)c(F)c4)C(=O)C13)O2 (configuration not stated) .
Output: 58.3

Input: If you can, please state the reported double positive events value of COc1ccccc1/C=C/CN1CCN(Cc2ccc(F)cc2)C(CCO)C1 (configuration not stated) .
Output: 63.2

Input: If you can, please state the reported double positive events value of CC1(C)C(C=C(Cl)Cl)C1C(=O)N1CCN(Cc2ccccc2)CC1 (configuration not stated) .
Output: 66.3

Input: If you can, please state the reported double positive events value of CC1=NN(C(=O)c2ccc(Br)cc2)C(O)(c2ccccc2)C1 (configuration not stated) .
Output: 64.3

Input: If you can, please state the reported double positive events value of COc1ccc(C2C3CCCCC3(O)CCN2C(=O)c2cccs2)cc1 (configuration not stated) .
Output: 61.4

Input: If you can, please state the reported double positive events value of C[C@]12CCC3C(CC=C4C[C@@H](O)CC[C@@]43C)C1CCC2[C@]1(C)CCC(=O)O1 (some centres not stated) .
Output: 57

Input: If you can, please state the reported double positive events value of CCc1cc2c(=O)c(-c3ccc4c(c3)OCCO4)coc2c(CN2CCCCC2C)c1O (configuration not stated) .
Output: 63.4

Input: If you can, please state the reported double positive events value of COc1cccc(-n2c(C)c3c(OC)cccc(=O)c3c2C)c1 .
Output: 49.9

Input: If you can, please state the reported double positive events value of C[N+](C)(C)CCCCCCCCCC[N+](C)(C)C .
Output: 70
